Recorded measurements of IC50, one per entry
- Assay System: CXCR4 (Homo sapiens, UniProt P61073)
- Construct: a human T cell line known to express CXCR4 can be employed; endogenous in cells
- Sequence (P61073 whole entry): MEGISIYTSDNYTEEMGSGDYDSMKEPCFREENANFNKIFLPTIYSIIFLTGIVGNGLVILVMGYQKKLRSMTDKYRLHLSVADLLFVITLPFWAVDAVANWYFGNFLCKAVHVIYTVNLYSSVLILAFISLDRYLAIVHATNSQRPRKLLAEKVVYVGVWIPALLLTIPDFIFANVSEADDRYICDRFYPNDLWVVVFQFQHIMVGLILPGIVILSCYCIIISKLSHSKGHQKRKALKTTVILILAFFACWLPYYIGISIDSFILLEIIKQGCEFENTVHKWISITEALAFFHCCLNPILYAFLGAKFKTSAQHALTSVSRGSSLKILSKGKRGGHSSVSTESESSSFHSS
- Method Notes: Inhibition of binding of human 125I-SDF-1 to CEM cells
- Conditions Used: 125I-SDF-1 binding to human T cell line CEM
Record the value in µM, omitting the unit from your answer.

>  <Molecule>
Cl.Cl.NCCNc1nccc(N2CCCCCC2)n1 [Example 1(41), dihydrochloride]

>  <Assay System>
CXCR4 (Homo sapiens, UniProt P61073)

>  <IC50 / µM>
0.2

$$$$

Proceed to the following item.
Data request: Would you kindly share the measured IC50 for c1ccc(CN2CCC(Nc3nccc(N4CCCCCC4)n3)C2)cc1 (centres unmarked) ?
Data returned: 0.15
